- SUBJECT OF TEST: Bile acid receptor (Homo sapiens)
- ASSAY NOTES: ATG_IR1_CIS: Attagene CIS-FACTORIAL HepG2 Assay for human Nuclear Receptor Subfamily 1 Group H Member 4 (NR1H4), IR1 submotif (AID 2282946)
- EXPERIMENTAL CONDITIONS: IR1 reporter transcription, actives raise or lower the signal
Calls of active or inactive are those of the source. The calls were made as follows: active = hit-call score of the fitted dose curve at least 0.9, where 1 is the maximum; inactive = score below 0.9.
Outcome field: choose from 1 for active, 0 for inactive

Solved cases (5 shown):
{"columns": ["COMPOUND", "ASSIGNED CATEGORY"],
 "data": [
  ["NC(=O)Cn1c(=O)cc(CCN2CCN(c3nccc4sccc34)CC2)c2ccc(F)cc21", 0],
  ["CCc1c(C(=O)NN2CCCCC2)nn(-c2ccc(Cl)cc2Cl)c1-c1ccc(Br)cc1", 1],
  ["CNC(=O)[C@H]1O[C@@H](n2cnc3c(NCc4cc(Cl)ccc4OCc4cc(C)no4)ncnc32)[C@H](O)[C@@H]1N", 0],
  ["Cc1ccccc1Cl", 0],
  ["COc1cc(S(=O)(=O)O)c(C)cc1N=Nc1c(O)ccc2cc(S(=O)(=O)O)ccc12", 0]
]}

Dear all, I need the recorded test outcome for Nc1nc(N)c2nc(CNc3ccc(C(=O)N[C@@H](CCC(=O)O)C(=O)O)cc3)cnc2n1 , thank you. 0

Dear all, I need the recorded test outcome for Nc1ccc(S(=O)(=O)c2ccc(N)cc2)cc1 , thank you. 0

Dear all, I need the recorded test outcome for Cc1nc(-c2ccc3c(c2)CCN(CCC2CCC(NC(=O)/C=C/c4ccc(F)cc4)CC2)CC3)no1 (centres undefined) , thank you. 0

Dear all, I need the recorded test outcome for Cc1cc(NC(=O)C(=O)O)cc(C)c1Oc1ccc(O)c2c1CCC2 , thank you. 0
